Exercise: state measured IC50 for each of the compounds provided.
TARGET OR SYSTEM: HRV3C (Human rhinovirus 14, UniProt P03303)
Construct: SARS-Cov-2 3CLpro and HRV3C Duplex Assay
Sequence (P03303 1538-1719): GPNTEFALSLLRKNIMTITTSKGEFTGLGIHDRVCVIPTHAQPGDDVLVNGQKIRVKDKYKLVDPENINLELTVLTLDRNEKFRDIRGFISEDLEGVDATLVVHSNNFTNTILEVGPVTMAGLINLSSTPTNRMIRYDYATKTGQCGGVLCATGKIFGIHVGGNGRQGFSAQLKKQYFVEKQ
ASSAY EXPLANATION: biochemical
EXPERIMENTAL PARAMETERS: HRV3C, duplex assay, 30 mins preincubation; class symbols; read-out: HRV IC50

[ask] Look at this compound and give its reported IC50. `O=C(NC1CC1)C(=O)[C@H](C[C@@H]1CCNC1=O)NC(=O)[C@@H]1CC2(CCN1C(=O)[C@@H]1C[C@@H]1c1ccccc1)CC2`
[reply] 0.2 to 2 µM

[ask] Same again, this time with `CC(C)(C)c1csc(C(=O)N2CCC3(CC3)C[C@H]2C(=O)N[C@@H](C[C@@H]2CCNC2=O)C(=O)C(=O)NC2CC2)n1`
[reply] 2 to 20 µM

[ask] Please answer likewise for `COc1ccc(-c2csc(C(=O)N3CCC4(CC4)C[C@H]3C(=O)N[C@@H](C[C@@H]3CCNC3=O)C(=O)C(=O)NC3CC3)n2)cc1`
[reply] 0.2 to 2 µM

[ask] Same question for `O=C(NC1CC1)C(=O)[C@H](C[C@@H]1CCNC1=O)NC(=O)[C@@H]1CC2(CCN1C(=O)c1csc3ccccc13)CC2` please.
[reply] 0.02 to 0.2 µM

[ask] Please answer likewise for O=C(NC1CC1)C(=O)C(C[C@@H]1CCNC1=O)NC(=O)[C@@H]1CC2(CCN1C(=O)c1cnn(-c3ccccc3)n1)CC2 (stereo partly drawn)
[reply] 0.2 to 2 µM

[ask] Then `O=C(NC1CC1)C(=O)[C@H](C[C@@H]1CCNC1=O)NC(=O)[C@@H]1CC2(CCN1C(=O)c1cc3ccccn3n1)CC2` ?
[reply] 2 to 20 µM

###

TARGET OR SYSTEM: HRV3C (Human rhinovirus 14, UniProt P03303)
Construct: SARS-Cov-2 3CLpro and HRV3C Duplex Assay
ASSAY EXPLANATION: biochemical
EXPERIMENTAL PARAMETERS: read-out: HRV IC50
OUTCOME MEASURE: IC50

[ask] Returns the measured IC50 for the input molecule. Input: `O=C(NC1CC1)C(=O)[C@H](C[C@@H]1CCNC1=O)NC(=O)[C@@H]1CC2(CCN1C(=O)c1nc(C3CCCCC3)cs1)CC2`
[reply] > 10 µM

[ask] Next entry: `CC(C)(C)[C@H](NC(=O)C(F)(F)F)C(=O)N1CCC2(C[C@H]1C(=O)N[C@H](C#N)C[C@@H]1CCNC1=O)CC(F)(F)C2`
[reply] > 10 µM

[ask] Consider next the molecule `O=C(NC1CC1)C(=O)[C@H](C[C@@H]1CCNC1=O)NC(=O)[C@@H]1CC2(CCN1C(=O)c1nc(-c3ccc(Cl)cc3)cs1)CC2` in the same way.
[reply] > 10 µM

###

TARGET OR SYSTEM: SARS-Cov-2 3CLpro (Severe acute respiratory syndrome coronavirus 2)
Construct: SARS-Cov-2 3CLpro and HRV3C Duplex Assay
ASSAY EXPLANATION: SARS-Cov-2 3CLpro and HRV3C duplex assay (SAMDI-MS): 3CLpro
Type: biochemical
EXPERIMENTAL PARAMETERS: 3CLpro, duplex assay, 30 mins preincubation; class symbols; read-out: SARS-Cov-2 IC50
pIC50: −log10 of the molar value.
OUTCOME MEASURE: pIC50

[ask] Give the measured pIC50 of `Cn1c(C(=O)N2CCC3(CC3)C[C@H]2C(=O)N[C@@H](C[C@@H]2CCNC2=O)C(=O)C(=O)NC2CC2)cc2ccc(Cl)cc21` .
[reply] > 7.70

[ask] And for `Cn1c(C(=O)N2CCC3(CC3)C[C@H]2C(=O)N[C@@H](C[C@@H]2CCNC2=O)C(=O)C(=O)NC2CC2)nc2ccccc21` ?
[reply] 6.70 to 7.70

[ask] Also, `O=C(NC1CC1)C(=O)[C@H](C[C@@H]1CCNC1=O)NC(=O)[C@@H]1CC2(CCN1C(=O)c1nc(-c3ccc(Cl)cc3)cs1)CC2` please.
[reply] 5.70 to 6.70

[ask] Also `O=C(NC1CC1)C(=O)[C@H](C[C@@H]1CCNC1=O)NC(=O)[C@@H]1CC2(CCN1C(=O)c1cccc(-c3ccccc3)n1)CC2` ?
[reply] 5.70 to 6.70

[ask] Try this compound too: `O=C(NC1CC1)C(=O)[C@H](C[C@@H]1CCNC1=O)NC(=O)[C@@H]1CC2(CCN1C(=O)[C@@H]1C[C@@H]1c1ccccc1)CC2`
[reply] 4.70 to 5.70

[ask] # iterate: `O=C(NC1CC1)C(=O)[C@H](C[C@@H]1CCNC1=O)NC(=O)[C@@H]1CC2(CCN1C(=O)c1nc(C3CCCCC3)cs1)CC2`
[reply] 5.70 to 6.70

###

TARGET OR SYSTEM: human cathepsin L (Homo sapiens, UniProt P07711)
Sequence (P07711 114-333): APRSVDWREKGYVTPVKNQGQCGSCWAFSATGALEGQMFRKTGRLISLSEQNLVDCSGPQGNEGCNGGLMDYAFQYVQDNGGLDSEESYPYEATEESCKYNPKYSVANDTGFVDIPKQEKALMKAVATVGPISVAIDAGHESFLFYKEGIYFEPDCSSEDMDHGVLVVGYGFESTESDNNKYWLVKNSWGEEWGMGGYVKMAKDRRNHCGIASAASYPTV
pIC50: −log10 of the molar value.
I'd appreciate it if you could supply pIC50 values for the items below.

[ask] State its pIC50 on human cathepsin L (Homo sapiens, UniProt P07711): O=C(NC1CC1)C(=O)[C@H](C[C@@H]1CCNC1=O)NC(=O)[C@@H]1CC2(CCN1C(=O)[C@@H]1C[C@]13CCCc1ccccc13)CC2 (relative stereo) [Compound 34B]
[reply] 5.00 to 6.00

[ask] Moving on to Cn1ncc2c1CC(C(=O)N1CCC3(CC3)C[C@H]1C(=O)NC(C[C@@H]1CCNC1=O)C(=O)C(=O)NC1CC1)CC2 (stereo partly shown) [Compound 14]
[reply] ≤ 5.00

[ask] Same thing, different compound: Cn1cc(C(=O)N2CCC3(CC3)C[C@H]2C(=O)N[C@@H](C[C@@H]2CCNC2=O)C(=O)C(=O)NC2CC2)c2ccccc21 [Example 11]
[reply] 5.00 to 6.00

[ask] Please do the same for O=C(NC1CC1)C(=O)[C@H](C[C@@H]1CCNC1=O)NC(=O)[C@@H]1CC2(CCN1C(=O)C1Cc3ccccc3C1)CC2 [Example 6] as well.
[reply] ≤ 5.00

[ask] Same thing, different compound: O=C(NC1CC1)C(=O)C(C[C@@H]1CCNC1=O)NC(=O)[C@@H]1[C@@H]2C[C@@H](CC23CC3)N1C(=O)c1nc(-c2ccccc2)cs1 (stereo partly shown) [Compound 26]
[reply] ≤ 5.00

[ask] Now try Cn1nc2ccccc2c1C(=O)N1CCC2(CC2)C[C@H]1C(=O)N[C@@H](C[C@@H]1CCNC1=O)C(=O)C(=O)NC1CC1 [Example 7] .
[reply] 5.00 to 6.00

[ask] # repeat for Cn1c(C(=O)N2CCC3(CC3)C[C@H]2C(=O)N[C@H](C#N)C[C@@H]2CCNC2=O)cc2ccccc21 [Example 5]
[reply] ≤ 5.00

[ask] Try the compound COc1ccc2cc(C(=O)N3CCC4(CC4)C[C@H]3C(=O)N[C@@H](C[C@@H]3CCNC3=O)C(=O)C(=O)NC3CC3)n(C)c2c1 [Compound 29]
[reply] ≤ 5.00

[ask] Entry to check: O=C(NC1CC1)C(=O)[C@H](C[C@@H]1CCNC1=O)NC(=O)[C@@H]1CC2(CCN1C(=O)c1cc3ccccc3n1C1CC1)CC2 [Example 8]
[reply] ≤ 5.00

[ask] Then Cc1ccc2cc(C(=O)N3CCC4(CC4)C[C@H]3C(=O)N[C@@H](C[C@@H]3CCNC3=O)C(=O)C(=O)NC3CC3)sc2c1 [Compound 15] ?
[reply] 5.00 to 6.00

[ask] Here is the next compound: O=C(NC1CC1)C(=O)[C@H](C[C@@H]1CCNC1=O)NC(=O)[C@@H]1CC2(CCN1C(=O)c1nc(-c3ccccc3Cl)cs1)CC2 [Compound 43]
[reply] ≤ 5.00

[ask] What about this compound? O=C(NC1CC1)C(=O)C(C[C@@H]1CCNC1=O)NC(=O)[C@@H]1[C@@H]2C[C@@H](CC23CC3)N1C(=O)c1cc2ccccc2s1 (stereo partly shown) [Compound 25]
[reply] ≤ 5.00

[ask] And Cn1c(C(=O)N2CCC3(CC3)C[C@H]2C(=O)N[C@@H](C[C@@H]2CCNC2=O)C(=O)C(=O)NC2CC2)nc2ccccc21 [Example 4] ?
[reply] ≤ 5.00

###

Assignment: determine reported IC50 for the given compounds.
TARGET OR SYSTEM: SARS-Cov-2 3CLpro (Severe acute respiratory syndrome coronavirus 2)
Construct: SARS-Cov-2 3CLpro and HRV3C Duplex Assay
ASSAY EXPLANATION: SARS-Cov-2 3CLpro and HRV3C duplex assay (SAMDI-MS): 3CLpro
Format: biochemical
EXPERIMENTAL PARAMETERS: 3CLpro, duplex assay, 30 mins preincubation; class symbols; read-out: SARS-Cov-2 IC50

[ask] Tell me the measured IC50 of `O=C(NC1CC1)C(=O)[C@H](C[C@@H]1CCNC1=O)NC(=O)[C@@H]1CC2(CCN1C(=O)c1ncc(-c3ccccc3)s1)CC2` , please.
[reply] 20 to 200 nM

[ask] Then `CN1CCN(c2ccc(C(=O)N3CCC4(CC4)C[C@H]3C(=O)N[C@@H](C[C@@H]3CCNC3=O)C(=O)C(=O)NC3CC3)cc2)CC1` ?
[reply] 200 to 2000 nM

[ask] // next record `O=C(NC1CC1)C(=O)[C@H](C[C@@H]1CCNC1=O)NC(=O)[C@@H]1CC2(CCN1C(=O)c1csc3ccccc13)CC2`
[reply] < 20 nM

[ask] Can you handle `COc1cccc(-c2csc(C(=O)N3CCC4(CC4)C[C@H]3C(=O)N[C@@H](C[C@@H]3CCNC3=O)C(=O)C(=O)NC3CC3)n2)c1` next?
[reply] 200 to 2000 nM

[ask] For `N#C[C@H](C[C@@H]1CCNC1=O)NC(=O)[C@@H]1CC2(CCN1C(=O)c1ncc(-c3ccccc3)s1)CC2` then?
[reply] 200 to 2000 nM

[ask] Also `O=C(NC1CC1)C(=O)[C@H](C[C@@H]1CCNC1=O)NC(=O)[C@@H]1CC2(CCN1C(=O)[C@@H]1CCCc3ccccc31)CC2` ?
[reply] 20 to 200 nM

[ask] And for `Cc1ccc2cc(C(=O)N3CCC4(CC4)C[C@H]3C(=O)N[C@@H](C[C@@H]3CCNC3=O)C(=O)C(=O)NC3CC3)sc2c1` ?
[reply] < 20 nM

[ask] Next entry: `COc1ccccc1-c1csc(C(=O)N2CCC3(CC3)C[C@H]2C(=O)N[C@@H](C[C@@H]2CCNC2=O)C(=O)C(=O)NC2CC2)n1`
[reply] 200 to 2000 nM

[ask] Another compound: O=C(NC1CC1)C(=O)[C@H](C[C@@H]1CCNC1=O)NC(=O)[C@@H]1CC2(CCN1C(=O)[C@@H]1C[C@]13CCCc1ccccc13)CC2 (relative stereo) [Compound 34B]
[reply] 20 to 200 nM

[ask] Now consider `O=C(NC1CC1)C(=O)[C@H](C[C@@H]1CCNC1=O)NC(=O)[C@@H]1CC2(CCN1C(=O)c1nc(-c3ccccc3Cl)cs1)CC2` and answer again.
[reply] 200 to 2000 nM

[ask] Also, `O=C(NC1CC1)C(=O)[C@H](C[C@@H]1CCNC1=O)NC(=O)[C@@H]1CC2(CCN1C(=O)[C@H]1CCCc3ccccc31)CC2` please.
[reply] 20 to 200 nM

[ask] And then `CC(C)(C)[C@H](NC(=O)C(F)(F)F)C(=O)N1CCC2(C[C@H]1C(=O)N[C@H](C#N)C[C@@H]1CCNC1=O)CC(F)(F)C2` , what is it?
[reply] 200 to 2000 nM

[ask] Could you do the same for `CC(C)(C)[C@H](NC(=O)C(F)(F)F)C(=O)N1CCC2(CC2)C[C@H]1C(=O)N[C@H](C#N)C[C@@H]1CCNC1=O` , please?
[reply] < 20 nM

[ask] Param item: O=C(NC1CC1)C(=O)C(C[C@@H]1CCNC1=O)NC(=O)[C@@H]1[C@@H]2C[C@@H](CC23CC3)N1C(=O)c1cc2ccccc2s1 (stereo partly drawn)
[reply] 20 to 200 nM

[ask] Can you handle `COc1ccc2cc(C(=O)N3CCC4(CC4)C[C@H]3C(=O)N[C@@H](C[C@@H]3CCNC3=O)C(=O)C(=O)NC3CC3)n(C)c2c1` next?
[reply] < 20 nM

[ask] Next: `CC(C)(C)[C@H](NC(=O)C(F)(F)F)C(=O)N1[C@H]2C[C@@H]([C@H]1C(=O)N[C@H](C#N)C[C@@H]1CCNC1=O)C1(CC1)C2`
[reply] < 20 nM

[ask] O=C(NC1CC1)C(=O)C(C[C@@H]1CCNC1=O)NC(=O)[C@@H]1CC2(CCN1C(=O)c1cc3ccccc3n1-c1ccccc1)CC2 (stereo partly drawn) ?
[reply] < 20 nM

[ask] // repeat for O=C(NC1CC1)C(=O)C(C[C@@H]1CCNC1=O)NC(=O)[C@@H]1CC2(CCN1C(=O)c1noc(-c3ccccc3)n1)CC2 (stereo partly drawn) and report
[reply] 20 to 200 nM
